tested on: Wolbachia pipientis; assay: Anti-Wolbachia Cell-Based Screen; type: functional; design: scale not given: in the data most compounds retested in dose-response had high values; conditions: 5 µM
About 13,000 (27%) of roughly 48,000 compounds showed an effect of 50% or more. Some of the results follow.
Recorded Percent Effect values for a group of compounds are listed next.
Quick note: give the figure in %, leave out the unit.

Entry under review: Cc1ccc(S(=O)(=O)NC(=O)c2cccc(OCC(N)=O)c2)s1 . Reported Percent Effect?
-0.7122

// same read-out, input: CCOc1cccc2c1OCC(C(=O)NS(=O)(=O)c1cccs1)=C2
95.96

Consider next the compound CCOc1ccc(C(=O)NS(=O)(=O)c2cncc(Br)c2)cc1OC in the same way.
-12.86

Same lookup for Cc1ccc(S(C)(=O)=O)cc1C(=O)NS(=O)(=O)c1cccs1 , please.
20

Same question, CCOCc1cccc(NCc2c[nH]nc2-c2cccnc2)c1 this time
-7.599

Another compound to look at: Cc1ccc(-n2nnc(CC(=O)N3CCSCC3)c2C)cc1
7.911

Could you do the same for FCCOc1cccc(NCc2c[nH]nc2-c2cccnc2)c1 , please?
-17.01

* * *

system: Wolbachia pipientis; assay: Anti-Wolbachia Cell-Based Screen; assay type: functional; design: scale not given: in the data most compounds retested in dose-response had high values; conditions: 5 µM
Out of some 48,000 compounds screened, about 13,000 (27%) showed an effect of 50% or more. Some of the results follow.
Listed here are compounds together with their documented Percent Effect.
Kindly provide the numeric value in % only, without the unit symbol.

* CCn1nc(C)c(CCNC(=O)c2cccc(-n3cccn3)c2)c1C | -5.095
* O=C(COC[C@@]12CCC[C@@H]1CN(C1CCCC1)C2)N1CCCC1.O=C(O)C(F)(F)F | 93.22
* CS(=O)(=O)N1C[C@H]2CCC[C@@]2(COCC2CCOCC2)C1 | -10.38
* Cc1nn(-c2ccccc2)c(C)c1CC(=O)NC1CC(=O)N(C)C1 (stereo not given) | 10.3

Kindly consider the entry below.
Value wanted: Percent Effect (Wolbachia pipientis) of entry COCCNC(=O)CCc1c(C)nn(-c2nc(C)c(C)c(=O)[nH]2)c1C
-2.178

* * *

test system: Wolbachia pipientis; test: Anti-Wolbachia Cell-Based Screen; type: functional; parameters: scale not given: in the data most compounds retested in dose-response had high values; settings: 5 µM
The campaign covered roughly 48,000 compounds. About 13,000 (27%) showed an effect of 50% or more. The list shows a part of the results.
Consider the following molecules and their measured Percent Effect readings.
Lab book: enter the figure in %, no units written.

Sample answers from the record:
* Cc1ccc(-c2cc(CNC(=O)N3CCOC(C)C3)on2)cc1 (centres undefined) | -4.045
* CS(=O)(=O)N1CCc2[nH]cnc2C12CCN(C(=O)c1ccccc1)CC2 | -3.54
* CN1[C@H](CO)C[C@H](CNCc2ccc(CO)o2)[C@@H]1c1ccccc1F | -6.438
* CCCNC(=O)C1(Cc2cc(-c3ccccc3)no2)CCN(C(C)=O)C1 (centres undefined) | 76.91
* Cc1cc(C)c(OCC(=O)NS(=O)(=O)c2cccnc2)c(C)c1 | -6.374
* CCN1CCN(C(=O)NCc2cccc(-c3cnn(C)c3)c2)CC1 | -0.06636
* CCNC(=O)C1(Cc2cc(-c3ccccc3)no2)CCCN(C(C)=O)C1 (centres undefined) | 105.3
* COCCn1cnnc1Cn1ccnc1-c1ccsc1 | -0.8108

# query: Percent Effect of entry O=C(NCc1nncn1C1CC1)Nc1ccc(OC2CCC2)c(F)c1
8.636

And the next one, CNC(=O)c1ccc(NC2CCN(CC(F)(F)F)C2=O)cc1Cl (centres undefined) ?
5.324

* * *

tested on: Wolbachia pipientis; experiment: Anti-Wolbachia Cell-Based Screen; format: functional; set-up: scale not given: in the data most compounds retested in dose-response had high values; settings: 5 µM
The campaign covered roughly 48,000 compounds. About 13,000 (27%) showed an effect of 50% or more. The list shows a part of the results.
Percent Effect for assorted compounds
Report the value in % with no unit label.

Past entries and their recorded results:
• COc1cccc(N2CC3(CCN(c4ccncn4)C3)CC2=O)c1 (stereo unspecified) = -12.13
• O=C(NCc1csc(Br)c1)c1ccc(=O)[nH]n1 = 9.228
• Cl.Cn1nc(C2CCCN(Cc3ccc(F)cc3)C2)c2nccnc21 (stereo unspecified) = 103.8
• O=C1N(c2ccc(Cl)cc2)Cc2nc(=O)[nH]n21 = -10.7
• CCOC(=O)[C@]12CCCN(Cc3cccs3)C[C@H]1CN(C(C)=O)C2.O=C(O)C(F)(F)F = 93.24

So what's the measured Percent Effect for this one? CCOC(=O)[C@]12CCCN(Cc3nccs3)C[C@H]1CN(C(C)C)C2.O=C(O)C(F)(F)F.O=C(O)C(F)(F)F
-10.51

Same thing, different compound: Cc1nccnc1CN1CCC2(CCCN(C3CCOCC3)C2=O)C1 (stereo unspecified)
1.539

What about CCOC(=O)[C@]12CCCN(Cc3ccco3)C[C@H]1CN(S(C)(=O)=O)C2.O=C(O)C(F)(F)F ?
113.6

* * *

tested on: Wolbachia pipientis; experiment: Anti-Wolbachia Cell-Based Screen; assay type: functional; set-up: scale not given: in the data most compounds retested in dose-response had high values; settings: 5 µM
In all, about 48,000 compounds went through this assay and about 13,000 (27%) showed an effect of 50% or more. The list shows a part of the results.
Recorded Percent Effect values for a group of compounds are listed next.
Report field: quantity (unit follows the number).

Looking for the measured Percent Effect of COCCN(C)CCN1CC2(CCN(C(=O)C3CCOC3)CC2)OC1=O (stereo not drawn) , can you help?
-2.366%

* * *

tested on: Wolbachia pipientis; assay: Anti-Wolbachia Cell-Based Screen; assay type: functional; design: scale not given: in the data most compounds retested in dose-response had high values; details: 5 µM
In all, about 48,000 compounds went through this assay and about 13,000 (27%) showed an effect of 50% or more. Some of the results follow.
Recorded measurements of Percent Effect, one per entry
Express your answer in %, writing the number without its unit.

Examples with answers:
• CC(c1nc(C2CC2)no1)N(C)Cc1ccc(Cl)cc1 (configuration not stated) = -4.386
• COc1ccc(CN2CCC[C@H]2c2nc(-c3cncnc3N)no2)cc1 = -2.568
• COc1cccc(COCC(=O)N2CCCC(n3cccn3)C2)c1 (configuration not stated) = 17.54
• O=C(Cn1cnnn1)N1CCCCC1Cn1cccn1 (configuration not stated) = -6.209
• COc1ccc(OCCC(=O)N2CCCC2Cn2cccn2)cc1 (configuration not stated) = 116.7

I am curious: what Percent Effect value has been reported for CC(=O)NC(C(=O)N1CCn2cncc2C1)C(C)C (configuration not stated) ?
3.291

And what about the molecule Cc1ccc(CC(=O)N2CCCCC2Cn2cccn2)cn1 (configuration not stated) ?
89.03

* * *

Entries annotated with measured Percent Effect
tested on: Wolbachia pipientis; experiment: Anti-Wolbachia Cell-Based Screen; format: functional; parameters: scale not given: in the data most compounds retested in dose-response had high values; conditions: 5 µM
Screen size: about 48,000 compounds; about 13,000 (27%) showed an effect of 50% or more. Some of the results follow.
Write it as a number; the unit % goes unstated.

The cases that follow already have their Percent Effect on record.
* Cc1ccc(S(=O)(=O)N2CCCC(c3n[nH]cc3C(=O)N(C)C)C2)cc1 (stereo unspecified) | 125.7
* N#Cc1cccc(C(=O)N2CCc3c(COCC4CC4)cncc3C2)c1.O=C(O)C(F)(F)F | -0.2698

I am curious: what Percent Effect value has been reported for CCc1ccc(C(=O)O)cc1S(=O)(=O)N(C)c1cccc(C#N)c1 ?
-20.44

Same read-out for CCC(CO)N(Cc1cccs1)C(=O)Cc1ccc(O)cc1 (stereo unspecified) ?
12.13

Thanks! And COCCOc1ccccc1NC(C)C(=O)NC(=O)NC(C)(C)C (stereo unspecified) ?
2.141

Then this molecule: CN1C[C@@H](NC(=O)c2ccccc2)C[C@H]1c1nc(-c2cnccn2)no1
-2.532

Check CN(C)C(=O)NCc1nnc2n1CCN(Cc1cccs1)C2 too.
-18.34

* * *

test system: Wolbachia pipientis; assay: Anti-Wolbachia Cell-Based Screen; type: functional; parameters: scale not given: in the data most compounds retested in dose-response had high values; details: 5 µM
About 13,000 (27%) of roughly 48,000 compounds showed an effect of 50% or more. Some of the results follow.
readout_name: Percent Effect (%)
Answer with a number only, understood to be in %.

Reference set, count: 5
- COC(=O)NCCCn1ccnc1-c1ccccc1: 181.6
- COC(=O)CCCn1ccnc1-c1ccccc1: 2.023
- CC(C)c1nccn1CCCNC(=O)c1ccc(-c2cccnc2)nc1: 8.791
- Cc1cccc(CN2Cc3[nH]nc(COCC4CC4)c3C2)n1.O=C(O)C(F)(F)F: -6.126
- Cc1cccc(CN2CCc3ncnc(N4CCOCC4)c3CC2)n1.O=C(O)C(F)(F)F: -7.957

Query compound follows.
Would you mind telling me what Percent Effect value was observed for CCOCC(=O)NCCCn1ccnc1-c1ccccc1 ?
90.19
